- assaySystem: LAR (Homo sapiens (Human), UniProt P10586)
- Sequence (P10586 whole entry, looked up, species assumed): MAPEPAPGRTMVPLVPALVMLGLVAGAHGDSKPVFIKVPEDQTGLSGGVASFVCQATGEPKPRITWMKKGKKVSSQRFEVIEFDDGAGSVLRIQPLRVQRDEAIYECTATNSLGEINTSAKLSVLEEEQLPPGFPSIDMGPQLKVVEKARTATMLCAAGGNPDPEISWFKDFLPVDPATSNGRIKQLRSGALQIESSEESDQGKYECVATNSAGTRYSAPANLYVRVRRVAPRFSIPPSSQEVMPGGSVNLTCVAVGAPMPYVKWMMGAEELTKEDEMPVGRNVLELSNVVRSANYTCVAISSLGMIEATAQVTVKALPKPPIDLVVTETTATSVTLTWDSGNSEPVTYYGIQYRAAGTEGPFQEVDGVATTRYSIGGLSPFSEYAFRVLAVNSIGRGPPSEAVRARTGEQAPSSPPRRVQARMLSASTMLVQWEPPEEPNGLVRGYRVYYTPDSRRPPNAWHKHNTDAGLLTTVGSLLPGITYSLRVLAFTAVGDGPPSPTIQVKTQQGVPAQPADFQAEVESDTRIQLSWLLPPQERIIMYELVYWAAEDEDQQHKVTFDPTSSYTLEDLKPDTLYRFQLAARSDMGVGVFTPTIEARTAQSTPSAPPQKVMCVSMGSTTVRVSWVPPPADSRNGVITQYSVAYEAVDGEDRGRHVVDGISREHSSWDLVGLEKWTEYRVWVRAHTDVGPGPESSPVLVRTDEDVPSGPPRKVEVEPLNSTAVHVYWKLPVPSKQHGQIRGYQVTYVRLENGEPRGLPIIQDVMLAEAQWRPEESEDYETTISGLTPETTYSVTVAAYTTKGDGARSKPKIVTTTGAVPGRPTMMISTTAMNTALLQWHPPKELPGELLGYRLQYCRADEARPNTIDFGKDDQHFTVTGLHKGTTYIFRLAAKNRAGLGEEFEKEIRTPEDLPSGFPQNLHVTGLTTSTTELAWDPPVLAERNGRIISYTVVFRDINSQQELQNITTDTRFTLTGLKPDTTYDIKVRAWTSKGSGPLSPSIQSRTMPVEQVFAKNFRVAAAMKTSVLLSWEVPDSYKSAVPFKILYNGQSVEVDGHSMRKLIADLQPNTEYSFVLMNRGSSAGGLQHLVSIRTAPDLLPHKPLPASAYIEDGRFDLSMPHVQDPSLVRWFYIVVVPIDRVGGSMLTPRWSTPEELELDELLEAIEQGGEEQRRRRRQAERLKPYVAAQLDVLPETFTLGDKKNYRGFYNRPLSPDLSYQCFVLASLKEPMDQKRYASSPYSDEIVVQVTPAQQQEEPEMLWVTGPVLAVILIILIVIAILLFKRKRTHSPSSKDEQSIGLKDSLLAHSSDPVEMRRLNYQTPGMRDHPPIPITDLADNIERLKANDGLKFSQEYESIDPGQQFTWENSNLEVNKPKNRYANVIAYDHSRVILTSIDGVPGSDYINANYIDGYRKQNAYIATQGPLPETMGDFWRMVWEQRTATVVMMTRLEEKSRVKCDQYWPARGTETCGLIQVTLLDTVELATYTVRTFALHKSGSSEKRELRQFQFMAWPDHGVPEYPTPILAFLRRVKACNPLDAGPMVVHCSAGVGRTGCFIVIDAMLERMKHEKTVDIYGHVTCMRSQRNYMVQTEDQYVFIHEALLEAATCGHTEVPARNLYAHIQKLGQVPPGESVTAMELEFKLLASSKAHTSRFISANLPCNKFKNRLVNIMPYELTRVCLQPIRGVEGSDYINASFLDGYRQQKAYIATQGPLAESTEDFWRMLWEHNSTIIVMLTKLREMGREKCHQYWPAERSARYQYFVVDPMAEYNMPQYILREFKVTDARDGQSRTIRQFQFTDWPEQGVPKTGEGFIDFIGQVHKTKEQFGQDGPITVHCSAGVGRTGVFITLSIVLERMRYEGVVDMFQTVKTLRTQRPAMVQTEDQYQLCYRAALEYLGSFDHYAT

| molecule | Ki |
| --- | --- |
| CCc1ccc(C(=O)NCCCCC(NC(=O)C(Cc2ccc(C(F)(F)P(=O)(O)O)cc2)NC(=O)C(Cc2ccccc2)NC(=O)COC2CC(C)CCC2C(C)C)C(N)=O)cc1 (stereo not shown) | > 1000 nM |

* * *

- assaySystem: PTPα (Homo sapiens (Human), UniProt P18433)
- Sequence (P18433 20-802): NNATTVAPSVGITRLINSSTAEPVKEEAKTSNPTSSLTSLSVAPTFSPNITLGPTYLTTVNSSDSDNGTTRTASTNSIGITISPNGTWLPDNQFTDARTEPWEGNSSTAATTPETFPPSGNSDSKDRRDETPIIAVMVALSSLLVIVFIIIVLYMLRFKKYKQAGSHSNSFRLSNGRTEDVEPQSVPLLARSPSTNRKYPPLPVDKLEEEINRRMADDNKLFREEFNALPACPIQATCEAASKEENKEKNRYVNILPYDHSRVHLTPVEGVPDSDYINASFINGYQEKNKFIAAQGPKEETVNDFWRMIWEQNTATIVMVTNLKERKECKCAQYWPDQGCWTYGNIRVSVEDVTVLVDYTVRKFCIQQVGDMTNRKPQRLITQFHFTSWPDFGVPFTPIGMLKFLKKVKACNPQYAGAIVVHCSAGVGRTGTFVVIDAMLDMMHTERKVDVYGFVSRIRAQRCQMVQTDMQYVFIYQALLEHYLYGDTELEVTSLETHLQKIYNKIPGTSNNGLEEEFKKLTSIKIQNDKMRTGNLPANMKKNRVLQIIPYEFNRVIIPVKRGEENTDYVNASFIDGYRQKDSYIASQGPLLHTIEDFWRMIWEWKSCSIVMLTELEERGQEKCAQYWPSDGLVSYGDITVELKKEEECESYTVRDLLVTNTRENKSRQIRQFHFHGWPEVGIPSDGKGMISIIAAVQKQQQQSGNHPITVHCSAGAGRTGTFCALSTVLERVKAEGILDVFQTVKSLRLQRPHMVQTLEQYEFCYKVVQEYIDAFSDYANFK
- assay: PTP selectivity panel (pNPP), PTPα
- Assay type: biochemical
- assaySetup: Table 3
pKi: −log10 of the molar value.

| compound | assaySystem | pKi |
| --- | --- | --- |
| CCc1ccc(C(=O)NCCCCC(NC(=O)C(Cc2ccc(C(F)(F)P(=O)(O)O)cc2)NC(=O)C(Cc2ccccc2)NC(=O)COC2CC(C)CCC2C(C)C)C(N)=O)cc1 (stereo not shown) [Compound 10] | PTPα (Homo sapiens (Human), UniProt P18433) | < 6.00 |

* * *

- assaySystem: Lyp (Homo sapiens (Human))
- Sequence (Q9Y2R2 whole entry, species assumed): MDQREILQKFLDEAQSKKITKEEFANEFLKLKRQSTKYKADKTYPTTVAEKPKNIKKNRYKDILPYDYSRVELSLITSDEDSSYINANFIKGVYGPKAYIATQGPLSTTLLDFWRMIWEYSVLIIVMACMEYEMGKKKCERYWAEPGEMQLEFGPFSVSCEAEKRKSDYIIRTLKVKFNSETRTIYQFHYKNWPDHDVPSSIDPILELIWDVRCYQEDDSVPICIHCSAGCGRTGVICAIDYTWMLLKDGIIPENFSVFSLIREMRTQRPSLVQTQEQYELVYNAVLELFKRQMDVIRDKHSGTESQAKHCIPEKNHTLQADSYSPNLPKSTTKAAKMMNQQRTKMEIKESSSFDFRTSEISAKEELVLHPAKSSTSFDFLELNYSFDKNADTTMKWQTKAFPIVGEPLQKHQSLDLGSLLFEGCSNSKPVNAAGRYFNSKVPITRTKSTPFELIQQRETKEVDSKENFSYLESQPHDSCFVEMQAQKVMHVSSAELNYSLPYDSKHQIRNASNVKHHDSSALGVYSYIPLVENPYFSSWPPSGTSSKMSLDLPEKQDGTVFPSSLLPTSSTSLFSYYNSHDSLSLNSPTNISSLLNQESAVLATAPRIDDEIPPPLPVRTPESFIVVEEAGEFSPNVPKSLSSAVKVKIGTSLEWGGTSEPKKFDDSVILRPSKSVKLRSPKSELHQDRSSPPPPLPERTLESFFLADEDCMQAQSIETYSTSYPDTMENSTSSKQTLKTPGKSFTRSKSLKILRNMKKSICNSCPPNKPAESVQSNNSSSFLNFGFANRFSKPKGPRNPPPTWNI
- assay: PTP selectivity panel (pNPP), Lyp
- Format: biochemical
- assaySetup: Table 3
measurementName: Ki

| compound | measurementName | testValue |
| --- | --- | --- |
| CCc1ccc(C(=O)NCCCCC(NC(=O)C(Cc2ccc(C(F)(F)P(=O)(O)O)cc2)NC(=O)C(Cc2ccccc2)NC(=O)COC2CC(C)CCC2C(C)C)C(N)=O)cc1 (stereo not shown) | Ki | > 1 µM |

* * *

- assaySystem: UniProt:P35236
- Sequence (P35236 whole entry, species assumed): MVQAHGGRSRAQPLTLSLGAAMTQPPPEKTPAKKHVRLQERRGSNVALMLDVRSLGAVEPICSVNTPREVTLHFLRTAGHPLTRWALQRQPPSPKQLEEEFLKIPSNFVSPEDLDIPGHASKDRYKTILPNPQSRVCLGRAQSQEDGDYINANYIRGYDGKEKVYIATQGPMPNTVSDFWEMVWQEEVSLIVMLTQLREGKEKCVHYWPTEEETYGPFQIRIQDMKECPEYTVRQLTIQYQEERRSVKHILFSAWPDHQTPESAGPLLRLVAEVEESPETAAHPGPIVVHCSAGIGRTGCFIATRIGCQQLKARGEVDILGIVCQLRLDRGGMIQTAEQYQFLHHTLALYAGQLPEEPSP

| compound | assaySystem | Ki |
| --- | --- | --- |
| CCc1ccc(C(=O)NCCCCC(NC(=O)C(Cc2ccc(C(F)(F)P(=O)(O)O)cc2)NC(=O)C(Cc2ccccc2)NC(=O)COC2CC(C)CCC2C(C)C)C(N)=O)cc1 (stereo not shown) [Compound 10] | UniProt:P35236 | > 1000 nM |

* * *

- assaySystem: VHR (Homo sapiens (Human), UniProt P51452)
- Sequence (P51452 whole entry, species assumed): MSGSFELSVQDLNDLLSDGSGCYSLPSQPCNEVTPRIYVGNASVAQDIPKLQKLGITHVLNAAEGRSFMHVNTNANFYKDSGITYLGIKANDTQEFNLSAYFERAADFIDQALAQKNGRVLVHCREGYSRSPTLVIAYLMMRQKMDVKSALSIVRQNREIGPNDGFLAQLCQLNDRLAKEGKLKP
pKi: −log10 of the molar value.

| compound | pKi |
| --- | --- |
| CCc1ccc(C(=O)NCCCCC(NC(=O)C(Cc2ccc(C(F)(F)P(=O)(O)O)cc2)NC(=O)C(Cc2ccccc2)NC(=O)COC2CC(C)CCC2C(C)C)C(N)=O)cc1 (stereo not shown) [Compound 10] | < 6.00 |

* * *

- assaySystem: PTP1B (Homo sapiens (Human), UniProt P18031)
- Sequence (P18031 whole entry, species assumed): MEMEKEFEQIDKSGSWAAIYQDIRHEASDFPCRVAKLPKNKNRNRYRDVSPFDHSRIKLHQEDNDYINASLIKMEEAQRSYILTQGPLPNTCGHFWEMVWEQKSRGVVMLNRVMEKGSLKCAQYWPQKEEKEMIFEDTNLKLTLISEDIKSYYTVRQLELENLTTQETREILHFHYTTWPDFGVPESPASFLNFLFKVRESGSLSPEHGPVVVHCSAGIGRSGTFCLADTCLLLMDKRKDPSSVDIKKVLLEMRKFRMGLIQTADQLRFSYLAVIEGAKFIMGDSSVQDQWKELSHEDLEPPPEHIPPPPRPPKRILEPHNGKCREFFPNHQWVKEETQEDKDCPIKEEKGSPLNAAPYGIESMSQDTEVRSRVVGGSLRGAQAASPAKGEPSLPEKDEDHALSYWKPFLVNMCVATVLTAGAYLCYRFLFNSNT
- assay: PTP activity assay with pNPP substrate, PTP1B
- Type: biochemical
- assaySetup: known competitive ligand
pIC50: −log10 of the molar value.

| compound | assaySystem | pIC50 |
| --- | --- | --- |
| O=C(N[C@@H](Cc1ccc(C(F)(F)P(=O)(O)O)cc1)C(=O)O)OCC1c2ccccc2-c2ccccc21 [Fmoc-F2Pmp-OH, reference compound] | PTP1B (Homo sapiens (Human), UniProt P18031) | 4.70 |

* * *

- assaySystem: TC-PTP (Homo sapiens (Human))
- Sequence (P17706 whole entry): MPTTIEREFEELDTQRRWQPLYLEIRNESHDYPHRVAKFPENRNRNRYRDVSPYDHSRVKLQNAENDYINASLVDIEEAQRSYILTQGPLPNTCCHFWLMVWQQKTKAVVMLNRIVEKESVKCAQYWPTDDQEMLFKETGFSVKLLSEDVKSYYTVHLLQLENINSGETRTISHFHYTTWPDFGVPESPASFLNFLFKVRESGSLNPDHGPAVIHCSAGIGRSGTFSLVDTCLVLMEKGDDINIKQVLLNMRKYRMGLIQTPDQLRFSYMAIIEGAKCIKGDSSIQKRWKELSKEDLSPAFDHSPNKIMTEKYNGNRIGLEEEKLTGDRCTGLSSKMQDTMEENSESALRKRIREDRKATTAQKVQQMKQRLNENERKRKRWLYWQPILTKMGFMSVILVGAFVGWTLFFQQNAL
- assay: PTP activity assay with pNPP substrate, TC-PTP
- Assay type: biochemical
- assaySetup: tight binding inhibition equation; Table 1; read-out: Ki for TC-PTP

| compound | assaySystem | Ki / nM |
| --- | --- | --- |
| CCc1ccc(C(=O)NCCCCC(NC(=O)C(Cc2ccc(C(F)(F)P(=O)(O)O)cc2)NC(=O)C(Cc2ccccc2)NC(=O)COC2CC(C)CCC2C(C)C)C(N)=O)cc1 (stereo not shown) | TC-PTP (Homo sapiens (Human)) | 4.1 |
